Values from patent US20090170867A1

protocol details: Aqueous solubility
Format: physicochemical
test parameters: aqueous solution, pH 6.8, aqueous buffer; read-out: aqueous solubility at pH 6.8
Decide using solubility: a value greater than or equal to 20 µM is T, a smaller one is F.

// below: answered compounds
INSERT INTO results (compound, qualitative_label) VALUES
  ('O=C(Nc1ccc(C(F)(F)F)cc1)N1CC=C(c2ncc([C@H](O)CO)cc2F)CC1', 'T'),
  ('N#CCc1cnc(C2=CCN(C(=O)Nc3ccc(C(F)(F)F)cc3)CC2)c(Cl)c1', 'F'),
  ('O=C(O)Cc1cnc(C2=CCN(C(=O)Nc3ccc(C(F)(F)F)cc3)CC2)c(Cl)c1', 'T'),
  ('O=C(Nc1ccc(C(F)(F)F)cc1)N1CCC(F)(c2ncc([C@H](O)CO)cc2F)CC1', 'T');

Q) Quick check, solubility >= 20 µM? `O=C(Nc1ccc(C(F)(F)F)cc1)N1CCC(F)(c2ncc([C@H](O)CO)cc2Cl)CC1`
A) T

Q) Quick check, solubility >= 20 µM? `CN(C)Cc1cnc(C2=CCN(C(=O)Nc3ccc(C(F)(F)F)cc3)CC2)c(Cl)c1`
A) T

Q) Quick check, solubility >= 20 µM? `O=C(Nc1ccc(C(F)(F)F)c(F)c1)N1CCC(F)(c2ncc([C@H](O)CO)cc2Cl)CC1`
A) T
